Origin of values: patent US8188135B2

target: human CB2 receptors (Homo sapiens, UniProt P34972); construct: expressed in transfected cells; host or cells: HEK293; test: human CB2 radioligand binding assay ([3H]CP 55,940 competition); conditions: human CB2 (Ki, nM), HEK293 membranes, 0.5 nM [3H]CP 55,940
Sequence (P34972 whole entry): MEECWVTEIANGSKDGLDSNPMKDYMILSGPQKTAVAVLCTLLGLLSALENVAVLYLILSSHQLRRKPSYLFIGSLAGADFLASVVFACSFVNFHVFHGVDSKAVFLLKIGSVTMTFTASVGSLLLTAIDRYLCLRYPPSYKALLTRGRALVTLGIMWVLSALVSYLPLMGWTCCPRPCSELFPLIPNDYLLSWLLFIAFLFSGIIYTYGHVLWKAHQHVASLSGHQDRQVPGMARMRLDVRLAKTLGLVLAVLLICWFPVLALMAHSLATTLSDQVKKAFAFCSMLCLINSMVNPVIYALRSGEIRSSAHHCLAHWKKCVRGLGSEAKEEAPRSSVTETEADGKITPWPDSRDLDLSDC
Please assign label 0 whenever Ki is at or above 30 nM, and label 1 whenever it is below.

# compound, category
data = [
    ("C=CC(O)COc1ccc(C(F)(F)F)cc1C(=O)/N=c1\\cc(C(C)(C)C)n(C)n1C[C@H]1CCCO1 (stereo partly shown) [Example 101]", "label 1"),
    ("Cn1c(C2(C)CC2)c/c(=N\\C(=O)c2cc(C(F)(F)F)ccc2OCC(C)(C)O)n1C[C@H]1CCCO1 [Example 70]", "label 1"),
    ("Cn1c(C(C)(C)C)c/c(=N\\C(=O)c2cc(C#N)ccc2OCC(C)(C)O)n1C[C@H]1CCCO1 [Example 90]", "label 0"),
    ("CC(C)(C)c1cn(C[C@H]2CCCO2)/c(=N/C(=O)c2cc(C(F)(F)F)ccc2OCCN2CCCC2)o1 [Example 77]", "label 0"),
    ("C=C[C@H](O)COc1ccc(C(F)(F)F)cc1C(=O)/N=c1\\cc(C(C)(C)C)n(C)n1C[C@H]1CCCO1 [Example 107]", "label 1"),
]

(Q) Say whether its Ki is strictly beneath 30 nM. Entry: Cn1c(C(C)(C)C)c/c(=N\C(=O)c2cc(C(F)(F)F)ccc2OC[C@@H]2CCCCN2)n1C[C@H]1CCCO1 [Example 88]
(A) label 1

(Q) What do you have for Cn1c(C(C)(C)C)c/c(=N\C(=O)c2cc(C(F)(F)F)ccc2OC[C@@H]2CCCO2)n1C[C@H]1CCCO1 [Example 8] ?
(A) label 1

====

experiment: pharmacokinetic studies in rats; conditions: male, Sprague-Dawley, rat, in vivo, iv, 3 micromole/kg
Each record is given 1.0 if its reported half-life is strictly below 2 h. Records at or above 2 h are given 0.0.

(Q) Lab log: compare recorded half-life with 2 h; is it strictly lower for CC(C)Cn1/c(=N/C(=O)c2cccc(C(F)(F)F)c2F)cc(C(C)(C)C)n1C [C, reference compound] ?
(A) 1.0

(Q) Consider next the compound Cn1c(C(C)(C)C)c/c(=N\C(=O)c2cc(C#N)ccc2OCC(C)(C)O)n1CC1CCC1 [Example 113] in the same way.
(A) 0.0

(Q) Continue with Cn1c(C(C)(C)C)c/c(=N\C(=O)c2cc(Cl)ccc2OCC(C)(C)O)n1C[C@H]1CCCO1 [Example 89]
(A) 1.0

(Q) Ok, now Cn1c(C(C)(C)C)c/c(=N\C(=O)c2cc(C(F)(F)F)ccc2OCCC(C)(C)O)n1C[C@H]1CCCO1 [Example 20]
(A) 0.0

(Q) Query CCCCCn1/c(=N/C(=O)c2cc(C(F)(F)F)ccc2OCC(C)(C)O)cc(C(C)(C)C)n1C [Example 99] next
(A) 0.0

(Q) How about this compound: CCCCn1/c(=N/C(=O)c2cc(C(F)(F)F)ccc2OCC(C)(C)OC)cc(C(C)(C)C)n1C [G, reference compound]
(A) 1.0

(Q) Subsequent entry: Cn1c(C2(C)CC2)c/c(=N\C(=O)c2cc(C(F)(F)F)ccc2OCCC(C)(C)O)n1C[C@H]1CCCO1 [Example 68]
(A) 0.0

(Q) Same for Cn1c(C(C)(C)C)c/c(=N\C(=O)c2cc(C(F)(F)F)ccc2OCC(C)(C)O)n1CC1CCC1 [Example 86]
(A) 0.0
